Tested on: breast adenocarcinoma (MCF-7) cell line
Test: MTT cell viability assay, 72 h, MCF-7
Type: cell-based, human
Conditions: MCF-7, 72 h, MTT; concentration that kills 50% of cells
Let's look at some compounds and their measured LD50.
Please state the figure in µM; there is no need to write the unit.

compound: N#CSCc1ccc2ccccc2n1 [VA6H, Quinolin-2-ylmethyl Thiocyanate]
LD50 (µM): 24.18
--
compound: N#CSCc1ccc2c(c1)C(=O)c1ccccc1C2=O
LD50 (µM): 67.27
--
compound: Cl.N=C(N)Sc1nc2ccccc2nc1S
LD50 (µM): 44.02

Turning now to a further compound:
Lab book: LD50 of N#CSCc1nc2ccccc2nc1CSC#N noted as 83.93

---

Experiment: Thermogravimetric (TG) analysis of thermal stability
Assay type: physicochemical
Details: nitrogen, 50 to 350 °C, 10 °C/min
Procedure: The thermogravimetric (TG) studies were carried out with a Perkin–Elmer TGA-7 (Perkin Elmer, Inc. Watham, MA, USA) which was calibrated with alumel and nickel at 10 °C·min^−1. The calibration of the oven temperatures was carried out automatically and mass calibrated with a certified sample of 10 mg (ASTM E617, provided by Perkin Elmer, Inc. Watham, MA, USA). […]
assay.endpoint: TG To (Tonset of thermal degradation) (°C)
Expressed in °C, but write only the number.

# count of solved cases: 2
smiles.data: CSc1ccc2ccccc2n1
assay.endpoint: TG To (Tonset of thermal degradation)
measurement.unit: °C
experimental.value: 105.6

smiles.data: N#CSCc1c2ccccc2nc2ccccc12
assay.endpoint: TG To (Tonset of thermal degradation)
measurement.unit: °C
experimental.value: 205.0

In plain terms, N=C(N)[Se]Cc1cc2c(cc1Br)OCO2 has a documented TG To (Tonset of thermal degradation) of 205.2

TG To (Tonset of thermal degradation) in this record for COc1cc2oc(=O)cc(C[Se]C(=N)N)c2cc1OC : 226.4

Measured TG To (Tonset of thermal degradation) of N=C(N)[Se]Cc1ccc([N+](=O)[O-])o1 : 214.7

Looking up COc1cc2oc(=O)cc(CSC#N)c2cc1OC , I found its TG To (Tonset of thermal degradation) recorded as 246.9

// COc1cc2oc(=O)cc(CSC(=N)N)c2cc1OC : TG To (Tonset of thermal degradation) value = 272.4

Recorded result, Cc1noc(C)c1CSC(=N)N , TG To (Tonset of thermal degradation): 201.8

Given item N=C(N)SCc1c2ccccc2nc2ccccc12 , the value recorded as its TG To (Tonset of thermal degradation) is 193.1

For record N#CSCc1ccc2c(c1)C(=O)c1ccccc1C2=O the listed TG To (Tonset of thermal degradation) is 238.3

// recorded TG To (Tonset of thermal degradation) for N=C(N)SCN1C(=O)c2ccccc2C1=O : 233.1

Lookup result for CSc1ccnc(SC)n1 ; measured TG To (Tonset of thermal degradation): 103.5

---

Assay: Thermogravimetric (TG) analysis of thermal stability
Format: physicochemical
Conditions: nitrogen, 50 to 350 °C, 10 °C/min
Use 200 °C as the dividing line for TG To (Tonset of thermal degradation), with the line itself on the Met side and lower values as Not met.

As a guide, the following entries are already answered.
molecule: N#CSCc1ccc2ccccc2n1 [VA6H, Quinolin-2-ylmethyl Thiocyanate]
label.class: Not met
--
molecule: N=C(N)SCc1ccc2c(c1)C(=O)c1ccccc1C2=O
label.class: Met

Exercise: // inclusive: TG To (Tonset of thermal degradation) at least 200 °C? input: N=C(N)SCc1ccc([N+](=O)[O-])o1
Solution: Not met

Exercise: Decide: is the reported value of TG To (Tonset of thermal degradation) for N#CSCc1cc2c(cc1Br)OCO2 equal to or greater than 200 °C?
Solution: Not met

Exercise: Would you say Sc1ccnc(S)n1 shows TG To (Tonset of thermal degradation) at minimum 200 °C?
Solution: Met

Exercise: Check the entry Cc1noc(C)c1C[Se]C#N : does TG To (Tonset of thermal degradation) equal or exceed 200 °C?
Solution: Not met

---

Assay: DSC successive melting-recrystallization cycles, polymorphic behaviour
Format: physicochemical
Parameters: key: I: Compounds that show a polymorphic phase transition into an amorphous or mainly amorphous solid form after a first melting–cooling scan; II: Compounds that change into a new polymorphic form with a different Tonset of fusion than the one observed at the first melting–recrystallization scan after cooling; III: These compounds show a fusion process without modifications in the thermal behaviour after an initial fusion–recrystallization cycle; IV: Compounds that show recrystallization or other types of phase transition of the original form into another crystalline one in the first heat scan; V: Compounds without fusion processes at the range of temperatures studied; *: fusion with decomposition
Conditions: 10 °C/min
assay.endpoint: DSC Behaviour (polymorphic/calorimetric behaviour)

See these solved cases before continuing.
molecule: Cl.N=C(N)Sc1nc2ccccc2nc1S
experimental.value: *
//
molecule: N=C(N)SCN1C(=O)c2ccccc2C1=O
experimental.value: I
//
molecule: N=C(N)SCc1c2ccccc2nc2ccccc12
experimental.value: *
//
molecule: Cc1noc(C)c1C[Se]C#N
experimental.value: III

Lab note: measured DSC Behaviour (polymorphic/calorimetric behaviour) of N=C(N)[Se]Cc1nc2ccccc2nc1C[Se]C(=N)N was IV

// N=C(N)[Se]Cc1cc2c(cc1Br)OCO2 : DSC Behaviour (polymorphic/calorimetric behaviour) value = II

Measured DSC Behaviour (polymorphic/calorimetric behaviour) of N=C(N)SCc1nc2ccccc2nc1CSC(=N)N : I

// sample N=C(N)SCc1ccc2c(c1)C(=O)c1ccccc1C2=O , its DSC Behaviour (polymorphic/calorimetric behaviour) was V

So for COc1cc2oc(=O)cc(CSC#N)c2cc1OC , the logged DSC Behaviour (polymorphic/calorimetric behaviour) turned out to be I

DSC Behaviour (polymorphic/calorimetric behaviour) reading for CSc1ccnc(SC)n1 : V

According to the records, this molecule N=C(N)SCc1ccc([N+](=O)[O-])o1 displays DSC Behaviour (polymorphic/calorimetric behaviour) of *

Looking up CSc1nc2ccccc2nc1SC , I see its DSC Behaviour (polymorphic/calorimetric behaviour) listed as III

Notebook: N=C(N)SCc1ccc2ccccc2n1 , DSC Behaviour (polymorphic/calorimetric behaviour) read as I

Recorded result, N#CSCc1nc2ccccc2nc1CSC#N , DSC Behaviour (polymorphic/calorimetric behaviour): *

---

Test: Thermogravimetric (TG) analysis of thermal stability
Assay type: physicochemical
Conditions: nitrogen, 50 to 350 °C, 10 °C/min
assay.endpoint: TG To (Tonset of thermal degradation) (°C)
Record the value in °C, omitting the unit from your answer.

Some solved entries appear below for comparison.
compound: [SeH]Cc1c2ccccc2nc2ccccc12 [VA1D]
assay.endpoint: TG To (Tonset of thermal degradation)
experimental.value: 244.7
--
compound: N=C(N)SCc1ccc(-n2cccc2)cc1 [VA8P]
assay.endpoint: TG To (Tonset of thermal degradation)
experimental.value: 199.8
--
compound: N#CSCN1C(=O)c2ccccc2C1=O [VA6M]
assay.endpoint: TG To (Tonset of thermal degradation)
experimental.value: 164.8
--
compound: Sc1nc2ccccc2s1 [VA2C]
assay.endpoint: TG To (Tonset of thermal degradation)
experimental.value: 224.7
--
compound: N=C(N)SCc1ccc2ccccc2n1 [VA8H]
assay.endpoint: TG To (Tonset of thermal degradation)
experimental.value: 190.2
--
compound: [SeH]c1nc2ccccc2s1 [VA1C]
assay.endpoint: TG To (Tonset of thermal degradation)
experimental.value: 218.4

Item: CSc1nc2ccccc2nc1SC [VA4J, 2,3-Bis(methylsulfanyl)quinoxaline] | TG To (Tonset of thermal degradation): 197.42

Reported TG To (Tonset of thermal degradation) ( Cc1noc(C)c1C[Se]C(=N)N [VA7O] ) = 185.9

Record SCc1cc2c(cc1Br)OCO2 [VA2E] , field TG To (Tonset of thermal degradation): 266.2

Lookup result for CSc1nc2ccccc2s1 [VA4C] ; measured TG To (Tonset of thermal degradation): 131.8

Input N#CSCc1nc2ccccc2nc1CSC#N [VA6J] . Output TG To (Tonset of thermal degradation): 165.0

Reported TG To (Tonset of thermal degradation) ( N=C(N)[Se]Cc1ccc2ccccc2n1 [VA7H] ) = 145.8

Recorded result, N=C(N)[Se]Cc1ccc(-n2cccc2)cc1 [VA7P] , TG To (Tonset of thermal degradation): 175.8

---

Tested on: non-malignant mammary-gland-derived (184B5) cell line
Test: MTT cell viability assay, 72 h, 184B5
Assay type: cell-based
Conditions: Homo sapiens, 184B5, 72 h
Kindly apply the following: yes if GI50 is less than 40 µM, no in every other case.

compound: COc1cc2oc(=O)cc(CSC#N)c2cc1OC
label.class: yes
--
compound: N#CSCc1ccc2c(c1)C(=O)c1ccccc1C2=O
label.class: yes
--
compound: CSc1nc2ccccc2nc1SC
label.class: no
--
compound: Cl.N=C(N)Sc1nc2ccccc2nc1S
label.class: yes

Here's the next entry for you.
Exercise: Is GI50 strictly under 40 µM for the entry N#CSCc1ccc2ccccc2n1 [VA6H, Quinolin-2-ylmethyl Thiocyanate] ?
Solution: yes

The measured values listed here are drawn from paper PMC6152329.
